Attribution: the supplement of paper PMC13380429

- System: Caco-2
- experiment.description: cell viability relative to DMSO; higher = less toxic
- test.context: 72 h; 1000 nM
Please go through the items and note down their cell viability.
One number for each entry, in %.

Recorded cell viability, per entry:
| compound | cell viability / % |
| --- | --- |
| OB1OCc2cc(F)ccc21 [tavaborole] | 88.3 |
| CCOC(=O)N1c2ccc(C(F)(F)F)cc2[C@@H](N(Cc2cc(C(F)(F)F)cc(C(F)(F)F)c2)C(=O)OC)C[C@H]1CC | 101 |
| NCc1ccc(S(N)(=O)=O)cc1 [mafenide] | 103 |

For every item below, please supply its cell viability.
1. Cc1[nH]c(/C=C2\C(=O)Nc3cc(-c4ccccc4)ccc32)c(C)c1CCC(=O)O [SU16f]
2. COc1c(C)c2c(c(O)c1C/C=C(\C)CCC(=O)OCCN1CCOCC1)C(=O)OC2 [mycophenolate-mofetil]
3. CC(C[N+](C)(C)C)OC(N)=O (centres undefined) [bethanechol]
4. COc1ccc(CCc2nc3cc(-c4c(C)noc4C)ccc3n2C[C@H](C)N2CCOCC2)cc1Cl [SGC-CBP30]
5. O=C(NO)c1ccc(O)c(O)c1 [didox]

[91.9, 76, 97.4, 87.9, 86.7]

Noted for O[C@H]1[C@H](O)[C@@H](O)[C@H](O)[C@@H](O)[C@H]1O [inositol] : its cell viability reads 105

* * *

- Tested on: Calu-3
- experiment.description: cell viability relative to DMSO; higher = less toxic
- test.context: 72 h; 1000 nM
readout.label: cell viability (%)
Give bare numbers, in %.

| molecule | measured.on | cell viability / % |
| --- | --- | --- |
| Cc1sc2c(c1C)C(c1ccc(Cl)cc1)=N[C@@H](CC(=O)Nc1ccc(OCCOCCOCCOCCNc3cccc4c3C(=O)N(C3CCC(=O)NC3=O)C4=O)cc1)c1nnc(C)n1-2 (some centres not stated) | Calu-3 | 72 |

Attention now turns to another entry.
Noted for CC[C@H]1OC(=O)[C@@](C)(F)C(=O)[C@H](C)[C@@H](O[C@@H]2O[C@H](C)C[C@H](N(C)C)[C@H]2O)[C@](C)(OC)C[C@@H](C)C(=O)[C@H](C)[C@H]2N(CCCCn3cc(-c4cccc(N)c4)nn3)C(=O)O[C@]12C : its cell viability reads 97.2

* * *

- Test system: HepG2
- experiment.description: cell viability relative to DMSO; higher = less toxic
- test.context: 72 h; 1 nM
readout.label: cell viability (%)
Answers are plain numbers, in %.

Recorded cell viability, per entry:
| compound | measured.on | val |
| --- | --- | --- |
| CS(=O)(=O)c1ccc(-c2cc(Br)sc2-c2ccc(F)cc2)cc1 | HepG2 | 103 |
| Oc1ccc2ccccc2c1Cc1c(O)ccc2ccccc12 | HepG2 | 103 |
| Nc1ncnc2c1ncn2[C@@H]1O[C@H](CO)C[C@H]1O [cordycepin] | HepG2 | 95.3 |
| C[C@@H]1CN(Cc2ncccn2)C[C@H]1c1nc2c(cnn2C2CCOCC2)c(=O)[nH]1 | HepG2 | 99.2 |
| COc1ccc(CCN2CCN(CCCc3ccccc3)CC2)cc1OC | HepG2 | 91.5 |

For every item below, please supply its cell viability.
1. NCc1ccc(S(N)(=O)=O)cc1 [mafenide]
2. Cc1c(O)c(=O)ccn1C
3. C=CC(=O)Nc1cccc(Nc2nc(Nc3ccc(NC4CN(CCF)C4)cc3OC)ncc2C(F)(F)F)c1
4. Cn1cc(C2=C(c3ccc(Cl)cc3Cl)C(=O)NC2=O)c2ccccc21
5. CCN1C[C@]2(COC(=O)c3ccccc3N3C(=O)C[C@H](C)C3=O)CC[C@H](OC)[C@@]34[C@@H]5C[C@H]6[C@H](OC)[C@@H]5[C@](O)(C[C@@H]6OC)[C@](O)([C@@H](OC)[C@H]23)[C@@H]14

94.1
103
99.9
98.8
96.3
